# assayed_system: KRAS G12V (Homo sapiens, UniProt P01116+P62937, G12V)
# Sequence (P01116 1-169 isoform P01116-2 G12V limits assumed): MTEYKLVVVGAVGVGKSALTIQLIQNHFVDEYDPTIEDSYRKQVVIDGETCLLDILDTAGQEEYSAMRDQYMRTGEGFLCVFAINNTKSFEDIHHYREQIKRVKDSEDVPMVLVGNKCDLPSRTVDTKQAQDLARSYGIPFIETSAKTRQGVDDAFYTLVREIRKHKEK
# Sequence (P62937 whole entry): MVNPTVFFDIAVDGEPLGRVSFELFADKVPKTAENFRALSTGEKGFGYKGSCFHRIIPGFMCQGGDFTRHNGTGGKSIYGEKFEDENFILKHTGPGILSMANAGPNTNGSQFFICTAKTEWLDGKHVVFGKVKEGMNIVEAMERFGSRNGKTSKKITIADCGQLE
# experimental_protocol: Ras-Raf disruption / FRET / MOA assay (BRAF RBD)
# Format: biochemical
# measurement_conditions: Ras-Raf disruption, with Cyclophilin A; read-out: KRAS G12V FRET data IC50
pIC50: −log10 of the molar value.
outcome_measure: pIC50

IN: Given CCn1c(-c2cccnc2[C@H](C)OC)c2c3cc(ccc31)-c1cc(O)cc(c1)C[C@H](NC(=O)[C@H](C1CCCC1)N1CC[C@]3(CCN(C(=O)[C@H]4CN4)C3)C1=O)C(=O)N1CCC[C@H](N1)C(=O)OCC(C)(C)C2 , state its recorded pIC50.
OUT: 7.00 to 8.00

IN: For CCn1c(-c2cccnc2[C@H](C)OC)c2c3cc(ccc31)-c1cc(O)cc(c1)C[C@H](NC(=O)[C@H](C(C)C)N(C)C(=O)N1C[C@@H]3[C@H]1CCN3C(=O)[C@@H]1CN1)C(=O)N1CCC[C@H](N1)C(=O)OCC(C)(C)C2 (atropisomer, axis not shown) then?
OUT: 6.00 to 7.00

IN: For CCn1c(-c2cccnc2[C@H](C)OC)c2c3cc(ccc31)-c1cc(O)cc(c1)C[C@H](NC(=O)[C@H](C(C)C)N(C)C(=O)c1nc(NC(=O)[C@H]3CN3)cs1)C(=O)N1CCC[C@H](N1)C(=O)OCC(C)(C)C2 (atropisomer, axis not shown) then?
OUT: 6.00 to 7.00

IN: For CCn1c(-c2cccnc2[C@H](C)OC)c2c3cc(ccc31)-c1cc(O)cc(c1)C[C@H](NC(=O)[C@H](C(C)C)N(C)C(=O)[C@@H]1CN1)C(=O)N1CCC[C@H](N1)C(=O)OCC(C)(C)C2 then?
OUT: 7.00 to 8.00

IN: For CCn1c(-c2cccnc2[C@H](C)OC)c2c3cc(ccc31)-c1cccc(c1)C[C@H](NC(=O)[C@H](C(C)C)N(C)C(=O)CCN=C=NCc1ccccc1OC)C(=O)N1CCC[C@H](N1)C(=O)OCC(C)(C)C2 then?
OUT: < 5.00
